# tested.target: TMEM16A (Homo sapiens, UniProt Q5XXA6, DEL476-501)
# Construct: expressed in transfected cells
# Sequence (Q5XXA6 with tags, fused parts or gaps isoform Q5XXA6-5 DEL539-564): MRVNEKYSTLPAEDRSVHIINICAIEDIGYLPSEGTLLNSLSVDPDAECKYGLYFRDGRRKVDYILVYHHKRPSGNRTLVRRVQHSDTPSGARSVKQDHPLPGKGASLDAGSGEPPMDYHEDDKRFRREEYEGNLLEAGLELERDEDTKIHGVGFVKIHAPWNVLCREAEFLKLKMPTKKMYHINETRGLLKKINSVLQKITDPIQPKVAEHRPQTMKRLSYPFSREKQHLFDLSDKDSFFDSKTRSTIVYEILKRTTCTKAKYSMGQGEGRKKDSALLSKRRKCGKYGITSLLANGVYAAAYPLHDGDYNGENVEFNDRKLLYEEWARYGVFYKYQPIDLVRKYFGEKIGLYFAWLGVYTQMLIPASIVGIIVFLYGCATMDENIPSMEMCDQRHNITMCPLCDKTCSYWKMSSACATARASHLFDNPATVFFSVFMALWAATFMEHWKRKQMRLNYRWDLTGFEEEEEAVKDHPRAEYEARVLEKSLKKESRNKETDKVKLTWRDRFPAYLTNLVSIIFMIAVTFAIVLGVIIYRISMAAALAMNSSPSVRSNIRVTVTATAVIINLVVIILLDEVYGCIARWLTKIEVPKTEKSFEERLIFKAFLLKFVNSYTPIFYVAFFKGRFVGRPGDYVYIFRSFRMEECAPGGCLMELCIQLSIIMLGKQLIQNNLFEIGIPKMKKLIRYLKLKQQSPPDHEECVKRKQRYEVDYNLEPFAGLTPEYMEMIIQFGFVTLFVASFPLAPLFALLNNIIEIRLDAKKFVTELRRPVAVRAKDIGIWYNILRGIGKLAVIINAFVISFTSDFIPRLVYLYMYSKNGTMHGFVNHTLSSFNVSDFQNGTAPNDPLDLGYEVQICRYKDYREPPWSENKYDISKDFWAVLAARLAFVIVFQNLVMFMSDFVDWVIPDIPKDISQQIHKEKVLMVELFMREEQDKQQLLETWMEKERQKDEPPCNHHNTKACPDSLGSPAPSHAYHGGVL
# measurement.notes: Fluorescence plate reader assay of TMEM16A-mediated I^− influx (YFP halide sensor)
# Format: cell-based
# stated.conditions: synthesized F class analogs
measure: TMEM16A conductance, F class SAR

O=C(Nc1ccc(Cl)cc1)c1cccc(-n2cnnn2)c1 [4-chlorophenyl]: low activity
CN(C)c1ccc(NC(=O)c2cccc(-n3cnnn3)c2)cc1 [4-(N,N-dimethylamino)phenyl]: low activity
O=C(Nc1ccc([N+](=O)[O-])cc1)c1cccc(-n2cnnn2)c1 [4-nitrophenyl]: low activity
